Just for reference, the RNAGym collection of RNA variant scans (doi:10.7554/elife.90254) is where these values come from.

B1: LINE1-mini (parent)
chain: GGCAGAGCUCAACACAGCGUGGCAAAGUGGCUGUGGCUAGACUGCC

Variants of: B1
Test: self-cleavage, relative activity (ratio to wild type); higher = more cleavage; in vitro, sequencing; the parent is a self-cleaving ribozyme
Experimental Readout: self-cleavage
Give only the figure.

Query (variant): GGCAGAACUCAACACAGCGUGGUAAAGUGGCUGUGGCUAGACUGCC ; field requested: self-cleavage
0.11

For the variant shown here, GGCAGAGCUCAAAACAGCGUGGCAAAGUGGCUGUGUCUAGACUGCC , give the reported self-cleavage.
0.12

Dear colleague, I am looking for the recorded self-cleavage of the following variant: UGCAGAGCUCAACACAGCGUGGUAAAGUGGCUGUGGCUAGACUGCC
0.31

I would be grateful if you could share the reported self-cleavage for GGCACAGCUCAACACAGCGUGGCAAAGUGGCUGUCGCUAGACUGCC .
0.06

Using the record for GGCAGAGCUCAACACAGCGUGGCAAAGAGGCUGUAGCUAGACUGCC , report its self-cleavage.
0.15

Dear colleague, I am looking for the recorded self-cleavage of the following variant: GGCAGAGCUCAACACAGCGUGGCAAAGUGGCUGUGGCGAAACUGCC
0.04

What value of self-cleavage has been recorded for this entry: GUCAGAGCUCAACACAGCGUAGCAAAGUGGCUGUGGCUAGACUGCC
0.25

If you can, please state the reported self-cleavage value of GGCAGAGCUCAACACAGCGUGGCCAUGUGGCUGUGGCUAGACUGCC .
0.43

Query: self-cleavage; subject: GGCAGAGCUCAACACAGCGUGGUAAAGUGGCUGUGGCUAGACUGCC
1.03

What value of measured self-cleavage is listed for GGCAGAGCUCAACACAGCGUUCCAAAGUGGCUGUGGCUAGACUGCC ?
1.71

Could you share which self-cleavage value was measured for GGCAGAGCUCAACACAGCGUGACAAAGUGGCUGUGGCUAGAGUGCC ?
0.03

// lookup self-cleavage for GGCAGAGCUCAGCACAGCGUGGCAAAGUGGCUGUGGCUAAACUGCC
0.06

Value lookup for self-cleavage; key = GGCAGAGCUCGACACAGCGUGGCAAAGGGGCUGUGGCUAGACUGCC
0.02

Would you mind telling me what self-cleavage value was observed for GGCAGAGCUCAACACAGCGUUGCAAAGUGGAUGUGGCUAGACUGCC ?
0.19

Quick one: self-cleavage of GGCAGAGCUCAACUCAGCGUGGCAAAGUGGCUGUGGCUAGACUGCU ?
0.28

So what's the measured self-cleavage for this one? CGCAGAGCUCAACACAGCGAGGCAAAGUGGCUGUGGCUAGACUGCC
0.06

So what does the record say about self-cleavage for GGCAGAGCUCAACACAGUUUGGCAAAGUGGCUGUGGCUAGACUGCC ?
1.14

Given the variant GGCAGAGCUCAACACAGCGUGGCAAAGUGACUGUGGCUGGACUGCC , what is its reported self-cleavage?
0.11

Which self-cleavage value belongs to GGCAGAGCUCAACACUGCGUGGCAAAUUGGCUGUGGCUAGACUGCC ?
0.13

Please look up its self-cleavage: GGCAGAGCUCAACACAGCGUGGCAAAGUGGCUGUGGAGAGACUGCC
0.03

Which self-cleavage is reported for this variant? GGCAGAGCUCAAAACAGCGUGGCAAAGUAGCUGUGGCUAGACUGCC
0.19

Which self-cleavage reading was recorded for the variant GGCAGAGCUAAACAUAGCGUGGCAAAGUGGCUGUGGCUAGACUGCC ?
0.08
